B1: Azoarcus group I ribozyme (parent)
chain: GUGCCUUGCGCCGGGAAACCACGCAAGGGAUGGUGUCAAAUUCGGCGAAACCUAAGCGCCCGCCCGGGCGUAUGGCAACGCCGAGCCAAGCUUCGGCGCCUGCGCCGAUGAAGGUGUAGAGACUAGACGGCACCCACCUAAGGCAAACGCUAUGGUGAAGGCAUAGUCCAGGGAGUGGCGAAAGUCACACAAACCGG

Variants of: B1
Assay: reverse-splicing fitness (ratio to wild type); higher = more active; in vitro selection; Mg2+ level not given
Please use condition met whenever reverse-splicing fitness is not below 0.04, and condition not met whenever it is.

Incoming: Given C82G A111C A120U A145U C150A C169A U176C , state whether its reverse-splicing fitness is at least 0.04.
Outgoing: condition not met

Incoming: Record C82U A111U A120U C169U U176G ; criterion: reverse-splicing fitness no lower than 0.04. Met?
Outgoing: condition not met

Incoming: Test whether the variant C82U A111G A145U C150U records reverse-splicing fitness of 0.04 or higher.
Outgoing: condition met

Incoming: Hi, just wondering whether A120U C150U C169U shows reverse-splicing fitness of 0.04 or higher.
Outgoing: condition met

Incoming: Does the reported reverse-splicing fitness for A111U A120C U176G fall at or above the 0.04 mark?
Outgoing: condition met
